# Tested on: HL60 cells
# protocol.details: AsedaSciences SYSTEMETRIC Cell Health Screen (flow cytometry toxicity profiling)
# condition.notes: HL60, 4 h, 5 nM–100 µM, probability 0–1, n = 2
Is GSH: Glutathione score at least 0.09? Then Satisfied. If not, Not satisfied.

COc1cc2ncnc(Nc3ccc(F)c(Cl)c3)c2cc1OCCCN1CCOCC1 [Gefitinib, reference compound] :: Satisfied
CN(CCOc1ccc(CC2SC(=O)NC2=O)cc1)c1ccccn1 (stereo not shown) [Rosiglitazone, reference compound] :: Satisfied
Cc1ccc(N(CC2=NCCN2)c2cccc(O)c2)cc1 [Phentolamine, reference compound] :: Satisfied
C#Cc1cccc(Nc2ncnc3ccc(C(F)(F)F)cc23)c1 :: Not satisfied
C#Cc1cccc(Nc2ncnc3cc4c(cc23)OCO4)c1 :: Not satisfied
C#Cc1ccc(F)c(Nc2ncnc3cc(OC)c(OC)cc23)c1 :: Satisfied

In: # bool: GSH: Glutathione score of Cc1ccnc2c1NC(=O)c1cccnc1N2C1CC1 [Nevirapine, reference compound] >= 0.09
Out: Not satisfied

In: # bool: GSH: Glutathione score of CC(C)(C)c1ccc(C(O)CCCN2CCC(C(O)(c3ccccc3)c3ccccc3)CC2)cc1 (stereo not shown) [Terfenadine, reference compound] >= 0.09
Out: Satisfied

In: # bool: GSH: Glutathione score of `C#Cc1cccc(Nc2ncnc3cc(OC)ccc23)c1` >= 0.09
Out: Not satisfied

In: # bool: GSH: Glutathione score of `C#Cc1cccc(Nc2c(C#N)cnc3ccc(I)cc23)c1` >= 0.09
Out: Satisfied

###

# target.or.system: EGFR (Homo sapiens, UniProt P00533)
# Sequence (P00533 25-1210): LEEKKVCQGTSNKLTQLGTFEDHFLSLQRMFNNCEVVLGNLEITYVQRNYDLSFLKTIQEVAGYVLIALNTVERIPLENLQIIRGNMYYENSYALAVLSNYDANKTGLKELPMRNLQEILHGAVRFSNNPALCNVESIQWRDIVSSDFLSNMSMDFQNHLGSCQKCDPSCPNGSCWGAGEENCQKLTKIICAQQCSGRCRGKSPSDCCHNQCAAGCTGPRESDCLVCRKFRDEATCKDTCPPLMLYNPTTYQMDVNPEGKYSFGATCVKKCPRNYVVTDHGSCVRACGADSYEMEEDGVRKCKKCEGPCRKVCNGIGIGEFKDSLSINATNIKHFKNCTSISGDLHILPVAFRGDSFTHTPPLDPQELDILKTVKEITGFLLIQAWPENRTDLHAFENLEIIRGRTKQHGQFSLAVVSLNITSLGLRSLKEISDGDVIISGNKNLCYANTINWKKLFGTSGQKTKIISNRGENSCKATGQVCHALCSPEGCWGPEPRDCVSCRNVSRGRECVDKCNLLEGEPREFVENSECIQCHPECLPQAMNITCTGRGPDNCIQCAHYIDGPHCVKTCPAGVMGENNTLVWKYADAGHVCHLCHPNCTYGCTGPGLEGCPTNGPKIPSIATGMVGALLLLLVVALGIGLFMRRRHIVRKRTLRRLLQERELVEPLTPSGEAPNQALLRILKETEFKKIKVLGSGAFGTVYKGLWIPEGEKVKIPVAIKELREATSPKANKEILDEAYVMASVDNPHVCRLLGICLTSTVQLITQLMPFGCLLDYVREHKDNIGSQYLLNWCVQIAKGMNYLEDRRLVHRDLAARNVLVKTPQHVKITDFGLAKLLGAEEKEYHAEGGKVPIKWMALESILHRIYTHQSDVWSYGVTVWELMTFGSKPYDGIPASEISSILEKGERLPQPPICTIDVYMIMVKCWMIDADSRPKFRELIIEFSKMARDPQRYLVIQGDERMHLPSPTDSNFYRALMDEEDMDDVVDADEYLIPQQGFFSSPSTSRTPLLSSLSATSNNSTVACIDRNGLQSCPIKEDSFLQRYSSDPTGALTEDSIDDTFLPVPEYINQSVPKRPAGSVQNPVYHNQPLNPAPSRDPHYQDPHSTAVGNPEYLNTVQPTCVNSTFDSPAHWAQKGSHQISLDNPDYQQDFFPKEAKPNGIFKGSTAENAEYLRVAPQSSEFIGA
# protocol.details: ProQinase in-cell EGFR assay (EGFR phosphorylation in A431 cells)
# Format: cell-based
# Design: This cell line endogenously expresses a high level of EGFR; endogenous in cells; host or cells: A431
# condition.notes: ProQinase in-cell EGFR assay, A431 cells, n = 1
Exercise: state measured log10(IC50) for each of the molecules provided.
Recall that a logarithmic scale is used here: each number is log10 of IC50 in µM.

Sample answers from the record:
C#Cc1cccc(Nc2ccnc3cc(I)ccc23)c1F :: 0.23
C#Cc1cccc(Nc2ncnc3cc(F)c(F)cc23)c1 :: 1.08
C#Cc1cccc(Nc2ncnc3ccc(I)cc23)c1 :: -0.08
C#Cc1cc(Nc2ncnc3cc(I)ccc23)ccc1Cl :: 0.57
C#Cc1cc(Nc2ncnc3cc(I)ccc23)ccc1F :: 0.56

Hi, could you look up log10(IC50) for each item in my list?
1. C#Cc1cccc(Nc2ncnc3cc4c(cc23)OCCO4)c1
2. C#Cc1cccc(Nc2c(C#N)cnc3cc(I)ccc23)c1
3. C#Cc1ccc(F)c(Nc2ncnc3ccc(I)cc23)c1
4. C#Cc1cc(Nc2ncnc3cc(OC)c(OC)cc23)ccc1Cl

Out:
[0.28, 0.43, -0.12, -1.74]

###

Exercise: state measured NMI1: Nuclear membrane integrity 1 score for each of the compounds provided.
# Tested on: HL60 cells
# protocol.details: AsedaSciences SYSTEMETRIC Cell Health Screen (flow cytometry toxicity profiling)
# condition.notes: HL60, 4 h, 5 nM–100 µM, probability 0–1, n = 2

Sample answers from the record:
C#Cc1cccc(Nc2ncnc3ccc(S(C)(=O)=O)cc23)c1 [Compound 19] :: 0.36
C#Cc1cccc(Nc2ncnc3ccc(OC)cc23)c1 [Compound 2] :: 0.42
C#Cc1cccc(Nc2ncnc3ccc(C)cc23)c1 [Compound 4] :: 0.059
CN1CCN(CCCN2c3ccccc3Sc3ccc(Cl)cc32)CC1 [Prochlorperazine, reference compound] :: 1.00

// next item, NMI1: Nuclear membrane integrity 1 score requested
# NMI1: Nuclear membrane integrity 1 score of C#Cc1ccc(F)c(Nc2ncnc3ccc(I)cc23)c1 [Compound 34] = 0.17

###

# Tested on: HL60 cells
# protocol.details: AsedaSciences SYSTEMETRIC Cell Health Screen (flow cytometry toxicity profiling)
# condition.notes: HL60, 4 h, 5 nM–100 µM, probability (0–1) of high-risk class, n = 2
Is CHI: Cell Health Index at least 0.2? Then Met. If not, Not met.

In: # bool: CHI: Cell Health Index of C#Cc1cccc(Nc2ncnc3cc(Br)ccc23)c1 [Compound 14] >= 0.2
Out: Met

In: # bool: CHI: Cell Health Index of COc1ccc2cc3[n+](cc2c1OC)CCc1cc2c(cc1-3)OCO2 [Berberine, reference compound] >= 0.2
Out: Met

###

# target.or.system: EGFR (Homo sapiens)
# protocol.details: ProQinase in-cell EGFR assay (EGFR phosphorylation in A431 cells)
# Type: cell-based
# Design: This cell line endogenously expresses a high level of EGFR; endogenous in cells; host or cells: A431
# condition.notes: ProQinase in-cell EGFR assay, A431 cells, n = 1
Decision: IC50 beneath 2000 nM gives 1 (yes); IC50 meeting or exceeding 2000 nM gives 0 (no).

C#Cc1cccc(Nc2ncnc3cc(C#N)ccc23)c1 :: 0 (no)
C#Cc1cccc(Nc2ncnc3cc(I)ccc23)c1 :: 0 (no)
C#Cc1cccc(Nc2c(C#N)cnc3ccc(I)cc23)c1 :: 0 (no)
C#Cc1cc(Nc2ncnc3ccc(I)cc23)ccc1F :: 0 (no)
C#Cc1ccc(F)c(Nc2ncnc3cc(OC)c(OC)cc23)c1 :: 1 (yes)

In: I'd appreciate it if you could check whether `C#Cc1cc(Nc2ncnc3cc(OC)c(OC)cc23)ccc1F` has IC50 smaller than 2000 nM.
Out: 1 (yes)

In: I'd appreciate it if you could check whether `C#Cc1ccc(F)c(Nc2ncnc3cc(I)ccc23)c1` has IC50 smaller than 2000 nM.
Out: 0 (no)

###

# Test system: HL60 cells
# protocol.details: AsedaSciences SYSTEMETRIC Cell Health Screen (flow cytometry toxicity profiling)
# condition.notes: HL60, 4 h, 5 nM–100 µM, probability 0–1, n = 2
recorded.metric: CMI: Cell membrane integrity score

CCCCc1oc2ccccc2c1C(=O)c1cc(I)c(OCCN(CC)CC)c(I)c1 [Amiodarone, reference compound] :: 0.80

Hi, could you look up CMI: Cell membrane integrity score for each item in my list?
1. Cc1ccc(=O)n(-c2ccccc2)c1 [Pirfenidone, reference compound]
2. CC/C(=C(\c1ccccc1)c1ccc(OCCN(C)C)cc1)c1ccccc1 [Tamoxifen, reference compound]

Out:
0.090
1.00

Hi, could you look up CMI: Cell membrane integrity score for each item in my list?
1. COc1ccc2cc3[n+](cc2c1OC)CCc1cc2c(cc1-3)OCO2 [Berberine, reference compound]
2. CCOC(=O)N1CCC(=C2c3ccc(Cl)cc3CCc3cccnc32)CC1 [Loratadine, reference compound]

Out:
[0.050, 0.70]

###

# Test system: HL60 cells
# protocol.details: AsedaSciences SYSTEMETRIC Cell Health Screen (flow cytometry toxicity profiling)
# condition.notes: HL60, 4 h, 5 nM–100 µM, probability (0–1) of high-risk class, n = 2
recorded.metric: CHI: Cell Health Index
Numbers only.

Sample answers from the record:
C#Cc1cccc(Nc2ncnc3cc(OC)c(OC)cc23)c1F :: 0.33
C#Cc1cccc(Nc2ncnc3ccc(Br)cc23)c1 :: 0.19
C#Cc1cccc(Nc2ncnc3cc(OC)c(OC)cc23)c1 :: 0.41
C#Cc1cccc(Nc2ncnc3cc(C#N)ccc23)c1 :: 0.45
C#Cc1cc(Nc2ncnc3ccc(I)cc23)ccc1F :: 0.27
[H]/N=C(/N)N/C(=N/[H])NCCc1ccccc1 [Phenformin, reference compound] :: 0.41
C#Cc1cccc(Nc2ccnc3ccc(I)cc23)c1F :: 0.37
C#Cc1cccc(Nc2ncnc3ccc(C#N)cc23)c1 :: 0.18

Hi, could you look up CHI: Cell Health Index for each item in my list?
1. C#Cc1cccc(Nc2ncnc3cc4c(cc23)OCO4)c1
2. C#Cc1cc(Nc2ncnc3cc(I)ccc23)ccc1Cl
3. C#Cc1cc(Nc2ncnc3cc(OC)c(OC)cc23)ccc1F
4. Cc1ccc(-c2cc(C(F)(F)F)nn2-c2ccc(S(N)(=O)=O)cc2)cc1 [Celecoxib, reference compound]
5. C#Cc1cccc(Nc2ncnc3ccc(OC)cc23)c1
6. COc1cc2ncnc(Nc3ccc(F)c(Cl)c3)c2cc1OCCCN1CCOCC1 [Gefitinib, reference compound]
7. CSc1ccc2c(c1)N(CCC1CCCCN1C)c1ccccc1S2 (stereo not shown) [Thioridazine, reference compound]

Out:
1. 0.18
2. 0.88
3. 0.34
4. 0.54
5. 0.31
6. 0.80
7. 0.85

Hi, could you look up CHI: Cell Health Index for each item in my list?
1. C#Cc1cccc(Nc2ncnc3ccc(I)cc23)c1
2. COc1ccc(/C=C/C(=O)Nc2ccccc2C(=O)O)cc1OC [Tranilast, reference compound]
3. CN(CCOc1ccc(CC2SC(=O)NC2=O)cc1)c1ccccn1 (stereo not shown) [Rosiglitazone, reference compound]
4. C#Cc1cccc(Nc2ncnc3ccc(Cl)cc23)c1

Out:
1: 0.21; 2: 0.32; 3: 0.37; 4: 0.16
